Recorded values, source ChEMBL document CHEMBL1142623.

tested on: Amaranthus hypochondriacus; assay: Phytotoxicity against Amaranthus hypochondriacus assessed as inhibition of radicle elongation; assay type: functional, organism-based
pIC50: −log10 of the molar value.
quantity name: pIC50

[[record]]
compound = "O=C(O)COc1ccc(Cl)cc1Cl [2,4-DICHLOROPHENOXYACETIC ACID]"
test_target = "Amaranthus hypochondriacus"
value_observed = 3.74

[[record]]
compound = "COc1cc(OC)c2c(O)c3c(=O)c(C)c(C)oc3cc2c1"
test_target = "Amaranthus hypochondriacus"
value_observed = 4.10

[[record]]
compound = "COc1cc(OC)c2c(O)c3c(c(OC)c2c1)O[C@@H](C)[C@H](C)C3=O"
test_target = "Amaranthus hypochondriacus"
value_observed = 4.19

[[record]]
compound = "CC1=C2C(=CO[C@H](C)[C@H]2C)C(O)=C(C(=O)O)C1=O [CITRININ]"
test_target = "Amaranthus hypochondriacus"
value_observed = 4.26

[[record]]
compound = "Cc1cc(O)c2c(c1)C(=O)c1cc(O)cc(O)c1C2=O [EMODIN]"
test_target = "Amaranthus hypochondriacus"
value_observed = 3.89

[[record]]
compound = "COC(=O)c1ccc(O)cc1 [METHYLPARABEN]"
test_target = "Amaranthus hypochondriacus"
value_observed = 4.64

[[record]]
compound = "COc1cc(OC)c2c(O)c3c(cc2c1)O[C@@H](C)[C@H](C)C3=O"
test_target = "Amaranthus hypochondriacus"
value_observed = 4.00

[[record]]
compound = "COc1cc(OC)c2c(O)c3c(cc2c1)O[C@@H](C)CC3=O"
test_target = "Amaranthus hypochondriacus"
value_observed = 4.64

[[record]]
compound = "COc1cc(OC)c2c(O)c3c(c(OC)c2c1)O[C@@H](C)CC3=O"
test_target = "Amaranthus hypochondriacus"
value_observed = 4.89

